Measured on: GST-Dm-Relish (Drosophila melanogaster, UniProt Q94527 99-473)
Sequence: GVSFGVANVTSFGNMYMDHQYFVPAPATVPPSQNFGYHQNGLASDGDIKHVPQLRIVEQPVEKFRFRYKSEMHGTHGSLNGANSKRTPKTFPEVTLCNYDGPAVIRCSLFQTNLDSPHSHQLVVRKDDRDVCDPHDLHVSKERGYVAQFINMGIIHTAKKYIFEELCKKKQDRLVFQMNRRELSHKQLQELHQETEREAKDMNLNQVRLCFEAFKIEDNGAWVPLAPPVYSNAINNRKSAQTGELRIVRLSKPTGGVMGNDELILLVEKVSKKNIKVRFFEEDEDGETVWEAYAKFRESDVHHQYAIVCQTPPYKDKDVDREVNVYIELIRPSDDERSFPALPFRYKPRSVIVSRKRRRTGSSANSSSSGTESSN
Assay summary: protein-binding microarray (PBM); PBM: ~300 nM protein, 6 mM HEPES pH 7.8, 80 mM KCl, 0.5 mM EDTA, 0.5 mM EGTA, 6% glycerol, 35 ng/ul poly-dIdC, 1% milk, 1 h, room temperature; Ap Aiptasia and Nv Nematostella (sea anemones) / Co Capsaspora / Aq Amphimedon (sponge) / Dm Drosophila / Hu human; RHD is the Rel homology domain; high values mean tight binding
Experimental context: dsDNA, one strand shown
Observation type: binding signal (z-score)
Form entry: value (z-score) — number only.

Here is how some sequences turned out for binding signal.
CCGATTAACATCAATCCCCCCCGTGATGTTAATCGGGTCTTGATTCGCTTGACGCTGCTG 6.77
CCGATTAACATCAAAAAACTTCCTGATGTTAATCGGGTCTTGATTCGCTTGACGCTGCTG 1.56
CCGATTAACATCAAACATTCCCTTGATGTTAATCGGGTCTTGATTCGCTTGACGCTGCTG 2.37

GET /values?readout=binding signal&item= `CCGATTAACATCAGGGGAATGGATGATGTTAATCGGGTCTTGATTCGCTTGACGCTGCTG`
1.71

Need binding signal, item `CCGATTAACATCAGGAAGTCCCCTGATGTTAATCGGGTCTTGATTCGCTTGACGCTGCTG`
8.96
